- System Under Test: SARS-CoV-2 Spike protein (SARS-CoV-2 Wuhan-Hu-1, UniProt P0DTC2 14-1273)
- Run Description: cell-based or functional assay
Readout Kind: neutralization IC95 (µg/mL)
State just the number; it will be interpreted in µg/mL.

Kindly note the recorded neutralization IC95 for S2D8 (antibody, V domains shown) VH: EVQLLESGGGLVQPGGSLRLSCAASGFTFTTYAMSWVRQAPGKGLEWVSGISGSGGNTYHADSVKGRFTISRDNSKSTLYLQMNSLRAEDTAVYYCAKDLWFREILHGMDVWGEGTTVTVSS VL: QSALTQPASVSGSPGQSITISCTGTSSDIGGYNYVSWYQHHPGKAPKIMIYEVTNRPSGVSNRFSGSKSGNTASLTISGLQAEDEADYYCSSYTSSNTYVFGTGTKVTVL , which is 0.125

Origin of measurements: patent US20240059757A1
